Quick list: %Inh per entry.
- Test system: CSNK1G1;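 further: KINOMEscan kinase panel screen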
- Particulars: concentration: 1 μM, replicates: in singlicate; n = 1
Respond with the bare value in %.

// below: answered compounds
[[record]]
compound = "CN(c1ccc2c(c1)nc(NCc1ccccc1)n2C)c1ccnc(Nc2ccc(CS(C)(=O)=O)cc2)n1.Cl"
measured_value = 0

[[record]]
compound = "N#CC1(c2cccc(C(=O)Nc3cccc(Oc4ccc5nc(NC(=O)C6CC6)sc5n4)c3)c2)CC1"
measured_value = 0

[[record]]
compound = "c1ccc(Oc2ccc(Nc3ccnc4cc(-c5ccc(CN6CCCCC6)o5)ccc34)cc2)nc1"
measured_value = 0

[[record]]
compound = "O=C(O)C(F)(F)F.O=c1[nH]ccc2nc(N[C@@H]3CCNC3)nc(Nc3cc(Cl)cc(Cl)c3)c12"
measured_value = 77

[[record]]
compound = "COc1cc(Nc2ccnc3cc(-c4ccncc4)ccc23)cc(OC)c1OC.Cl"
measured_value = 0

[[record]]
compound = "NCCC(NC(=O)c1cc(Br)c(-c2ccnc3[nH]ccc23)s1)c1ccccc1.O=C(O)C(F)(F)F.O=C(O)C(F)(F)F (centres unmarked)"
measured_value = 83

[[record]]
compound = "Cn1cc(-c2ccc3c(c2)CCN3C(=O)Cc2cc(F)cc(F)c2F)c2c(N)ncnc21"
measured_value = 23


Now consider a different compound.
Reported %Inh for N#Cc1cnc2cc(-c3cnc(CNCCN4CCOCC4)s3)ccc2c1Nc1ccc(Oc2ccccc2)cc1 was 19
